Data origin: PubChem BioAssay AID2796

target: Aryl hydrocarbon receptor (Homo sapiens) (UniProt P35869); experiment: AHR activators, primary screen, cell-based, luminescence, luciferase reporter, human (AID 2796); settings: AHR-responsive luciferase reporter cells, at 5 µM;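 note: 0% = vehicle wells and 100% = reference agonist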
Sequence (P35869 whole entry, looked up): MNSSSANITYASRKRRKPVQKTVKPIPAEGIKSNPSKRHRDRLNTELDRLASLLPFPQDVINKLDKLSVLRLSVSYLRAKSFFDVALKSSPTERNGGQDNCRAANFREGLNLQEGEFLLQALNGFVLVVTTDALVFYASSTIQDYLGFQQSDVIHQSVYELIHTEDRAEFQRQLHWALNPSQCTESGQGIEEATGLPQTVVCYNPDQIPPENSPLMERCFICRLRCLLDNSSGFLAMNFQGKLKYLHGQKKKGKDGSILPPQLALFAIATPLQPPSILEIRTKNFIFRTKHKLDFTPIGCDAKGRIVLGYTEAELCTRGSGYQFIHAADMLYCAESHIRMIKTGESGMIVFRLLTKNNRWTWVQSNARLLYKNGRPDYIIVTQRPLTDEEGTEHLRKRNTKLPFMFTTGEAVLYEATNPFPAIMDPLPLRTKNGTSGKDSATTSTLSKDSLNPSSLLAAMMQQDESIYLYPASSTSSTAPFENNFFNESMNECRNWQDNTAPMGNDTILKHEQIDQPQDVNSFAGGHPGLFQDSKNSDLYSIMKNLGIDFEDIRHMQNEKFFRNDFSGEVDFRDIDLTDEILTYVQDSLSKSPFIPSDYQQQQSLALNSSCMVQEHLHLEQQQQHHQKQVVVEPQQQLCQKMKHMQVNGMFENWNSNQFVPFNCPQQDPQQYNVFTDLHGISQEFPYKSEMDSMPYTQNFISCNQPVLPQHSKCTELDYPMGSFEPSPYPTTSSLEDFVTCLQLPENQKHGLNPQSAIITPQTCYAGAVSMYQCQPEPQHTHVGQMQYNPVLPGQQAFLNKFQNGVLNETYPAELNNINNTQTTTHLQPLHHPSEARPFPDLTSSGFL
The whole screen tested about 320,000 compounds, of which about 8,000 (2.5%) were called active. Cut-off read from the data, not from the text of the source: active = activation above about 47%; inactive = the rest. Many of the other results were omitted from the sample, so actives are more common in it than they were.
Outcome codes: yes = active, no = inactive

Compound | Assigned label
O=C(Nc1ccc(Cl)cn1)c1cnn2cccnc12 | yes
O=C(CCNS(=O)(=O)c1ccc(Br)cc1)NCC1CCCO1 (stereo unspecified) | no
CC(=O)Nc1ccc(-c2nc3ccccc3o2)cc1 | yes
CNC(=O)c1c(NC(NC(=O)c2ccco2)C(=O)c2ccc(Cl)cc2)sc2c1CCCC2 (stereo unspecified) | no
Cc1cc(=O)oc2c1c(C)nn2-c1ccc(Cl)cc1 | yes
COc1ccc(-n2c(=S)[nH]c3sc4c(c3c2=O)CCc2ccccc2-4)cc1 | no

###

The reader will find reported activation values listed item by item below.
molecular target: Aryl hydrocarbon receptor (Homo sapiens) (UniProt P35869); assay: AHR activators, primary screen, cell-based, luminescence, luciferase reporter, human (AID 2796); conditions: AHR-responsive luciferase reporter cells, at 5 µM, stronger effect = higher value;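 note: 0% = vehicle wells and 100% = reference agonist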
Out of some 320,000 compounds screened, about 8,000 (2.5%) were called active. What follows is part of a selection rich in actives, with near analogues and random picks from the rest.

Molecule | Target of assay | Unit text | activation
Cc1cc(C(=O)COc2ccccc2[N+](=O)[O-])c(C)n1-c1cccc(S(=O)(=O)N2CCOCC2)c1 | Aryl hydrocarbon receptor (Homo sapiens) (UniProt P35869) | % | 10.1
Cc1ccc(C(=O)N/C(=C\c2cn(S(=O)(=O)N(C)C)c3ccccc23)C(=O)N2CCCC2)cc1 | Aryl hydrocarbon receptor (Homo sapiens) (UniProt P35869) | % | 0.25
Cc1c2cnn(-c3ccccc3)c(=O)c2c(C)n1CCCC(=O)N1CCN(C)CC1 | Aryl hydrocarbon receptor (Homo sapiens) (UniProt P35869) | % | -2.09
CCN(c1ccc(NC(=O)COC(=O)CCc2nc3ccccc3n2-c2ccccc2)cc1)C(C)C | Aryl hydrocarbon receptor (Homo sapiens) (UniProt P35869) | % | -1.26
O=C(CC1NCCNC1=O)Nc1ccc(Oc2ccccc2)cc1 (configuration not stated) | Aryl hydrocarbon receptor (Homo sapiens) (UniProt P35869) | % | 5.88
Cc1ccc(-c2nn(-c3ccccc3)cc2C(=O)NCCCN2CCCC2=O)cc1 | Aryl hydrocarbon receptor (Homo sapiens) (UniProt P35869) | % | 1.15
Brc1c(CSc2nncc3ccccc23)nc2ccccn12 | Aryl hydrocarbon receptor (Homo sapiens) (UniProt P35869) | % | 48.9
CN(C(=O)CSc1nncc2ccccc12)C1CCCCC1 | Aryl hydrocarbon receptor (Homo sapiens) (UniProt P35869) | % | 8.04
COc1cc(C2OC(c3cc(OC)c(OC)c(OC)c3)C(C)C2C)cc(OC)c1OC (configuration not stated) | Aryl hydrocarbon receptor (Homo sapiens) (UniProt P35869) | % | 3.59
NC(=O)C1=C[C@@H](c2csc3ccccc23)C[C@@H](OCc2ccc(CO)cc2)O1 | Aryl hydrocarbon receptor (Homo sapiens) (UniProt P35869) | % | -0.11
CCC(C)NCC(=O)Nc1ccc([N+](=O)[O-])cc1C(=O)Nc1ccccc1F (configuration not stated) | Aryl hydrocarbon receptor (Homo sapiens) (UniProt P35869) | % | 104
O=C(NCCNc1ccc([N+](=O)[O-])cc1Cl)c1ccccc1F | Aryl hydrocarbon receptor (Homo sapiens) (UniProt P35869) | % | -0.69
Cc1cccc(NC(=O)c2cc(N3C(=O)CCC3=O)ccc2Cl)n1 | Aryl hydrocarbon receptor (Homo sapiens) (UniProt P35869) | % | -0.56
NC(=O)C1=C[C@H](c2csc3ccccc23)C[C@H](OCc2ccc(CO)cc2)O1 | Aryl hydrocarbon receptor (Homo sapiens) (UniProt P35869) | % | 0.39
Cc1nc2ccccc2nc(=O)c1NNc1ccc([N+](=O)[O-])cc1 | Aryl hydrocarbon receptor (Homo sapiens) (UniProt P35869) | % | 47.2
COc1ccc(Cl)cc1-n1c(=S)sc2c(=O)n(-c3ccc(F)cc3)c(SCC(=O)O)nc21 | Aryl hydrocarbon receptor (Homo sapiens) (UniProt P35869) | % | 3.11
Cc1ccc(NC(=O)CSc2cccc3cccnc23)c(C)c1 | Aryl hydrocarbon receptor (Homo sapiens) (UniProt P35869) | % | 10.7
O=C(CC1Nc2ccccc2NC1=O)Nc1ccccc1 (configuration not stated) | Aryl hydrocarbon receptor (Homo sapiens) (UniProt P35869) | % | 101
O=C(CC1NCCc2ccccc21)Nc1cccc(Cl)c1 (configuration not stated) | Aryl hydrocarbon receptor (Homo sapiens) (UniProt P35869) | % | 8.99
O=C(NC1CC1)C1=C[C@H](c2c[nH]c3ccccc23)C[C@H](OCc2ccc(CO)cc2)O1 | Aryl hydrocarbon receptor (Homo sapiens) (UniProt P35869) | % | 135
COc1ccccc1CCNC(=O)CSc1nnc2ccc(-c3cccnc3)nn12 | Aryl hydrocarbon receptor (Homo sapiens) (UniProt P35869) | % | 16.4
CC1CCCCN1C(=O)CCS(=O)(=O)Cc1ccccc1 (configuration not stated) | Aryl hydrocarbon receptor (Homo sapiens) (UniProt P35869) | % | -0.28

###

The reader will find reported activation values listed item by item below.
target: Aryl hydrocarbon receptor (Homo sapiens); experiment: AHR activators, primary screen, cell-based, luminescence, luciferase reporter, human (AID 2796); details: AHR-responsive luciferase reporter cells, at 5 µM, stronger effect = higher value;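 note: 0% = vehicle wells and 100% = reference agonist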
The whole screen tested about 320,000 compounds, of which about 8,000 (2.5%) were called active. Shown is part of a subset that was picked to be rich in actives.

Compound | activation
CN(C)c1ccc(CNC2C3CC4CC(C3)CC2C4)cc1 (configuration not stated) | 1.86% (inactive)
Cc1cc(O)c(C(=O)/C=C/c2c(F)c(F)c(F)c(F)c2F)c(=O)o1 | 99.4% (active)
COc1ccc(NC(=O)C2=C(C)NC(=O)NC2c2ccccc2[N+](=O)[O-])cc1 (configuration not stated) | 2.47% (inactive)
C=CCN(CC=C)S(=O)(=O)c1ccc(C(=O)Nc2nc3c(s2)CCc2ccccc2-3)cc1 | 50.7% (active)
C=CCOc1c(Br)cc(/C=N\n2nnnc2N)cc1OC | 115% (active)
CC1C(=O)Nc2ccccc2N1C(=O)c1ccc(F)cc1F (configuration not stated) | 3.47% (inactive)
O=C(CCNS(=O)(=O)c1ccccc1C(F)(F)F)NCc1ccc2c(c1)OCO2 | 4.67% (inactive)
Cn1c(=O)c2c(nc(N3CCOCC3)n2CCNC2=NCCC2)n(C)c1=O | -1.68% (inactive)
Cc1cc(C)c(NC(=O)CN2CCOCCOCCOCCOCC2)c(C)c1 | 0.35% (inactive)
Cc1ccc(N=Cc2c(O)cc(C)oc2=O)c(C)c1 | -0.65% (inactive)
Brc1ccc2c(c1)[C@H]1OCC[C@H]1[C@@H](c1cccs1)N2 | 77.4% (active)
CCCCOc1ccc(C(=O)NCC(=O)OCC(=O)N2CCN(S(=O)(=O)c3ccc(C)cc3C)CC2)cc1 | 0.36% (inactive)

###

target: Aryl hydrocarbon receptor (Homo sapiens); assay: AHR activators, primary screen, cell-based, luminescence, luciferase reporter, human (AID 2796); conditions: AHR-responsive luciferase reporter cells, at 5 µM, stronger effect = higher value;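 note: 0% = vehicle wells and 100% = reference agonist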
Screen size: about 320,000 compounds; about 8,000 (2.5%) were called active. Only a selection was taken, and actives are over-represented in it overall.
Metric name: activation

Compound | Metric name | Value observed
CN1CCc2ccccc2C1Cc1ccccc1NC(=O)c1sc2ccccc2c1Cl (stereo unspecified) | activation | 11.4% (inactive)
CC(=O)c1nn(-c2cccc(C(F)(F)F)c2)c(=O)[nH]c1=O | activation | 0.72% (inactive)
Cn1c(SCC(=O)c2ccccc2)ncc(C(=O)Nc2ccc(F)cc2)c1=O | activation | 98.3% (active)
c1ccc(-n2nnnc2-c2cccnc2)cc1 | activation | 36.3% (inactive)
Cc1ccc(NC(=O)c2cnc(SCC(=O)NCC3CCCO3)n(C)c2=O)cc1 (stereo unspecified) | activation | 16.3% (inactive)
COc1ccccc1C1=CC(=O)CCC1 | activation | 0.36% (inactive)
COC(=O)c1c(C)oc2ccc(N(C(=O)Oc3ccccc3)S(=O)(=O)c3ccccc3)cc12 | activation | -0.17% (inactive)
Nc1nonc1-n1nnc(C(=O)N/N=C/c2c[nH]c3ccccc23)c1-c1ccccc1 | activation | 15.2% (inactive)
C=CCNC(=O)c1ccc2c3n(nc2c1)-c1ccc(C)cc1CO3 | activation | -9.75% (inactive)
O=C(COC(=O)c1ccc2c(c1)OCCO2)NCc1ccccc1Cl | activation | -0.15% (inactive)
COc1ccc(COCCN2CCN(S(=O)(=O)c3ccccc3)CCC2=O)cc1 | activation | 2.49% (inactive)
CC(C)(C)C1CCC(=NNC(=O)c2ccc(Br)o2)CC1 (stereo unspecified) | activation | 9.69% (inactive)
Cn1c(SCC(=O)c2ccc(F)cc2)nnc1-c1ccccn1 | activation | -0.55% (inactive)
O=C(Nc1ccc(F)cc1)c1cc2c(s1)CCCC2 | activation | 55.3% (active)
COc1ccc(/C=C/c2noc(-c3ccccc3OC(C)=O)n2)cc1 | activation | 2.04% (inactive)
COc1ccc(S(=O)(=O)N2CCCCC2)cc1NC(=O)COc1ccccc1 | activation | -0.98% (inactive)
Cc1cnc(C(=O)OCc2c(C)cc(C(C)(C)C)cc2C)cn1 | activation | 3.96% (inactive)
CC(NC(=O)COc1ccc(-c2ccccc2)cc1)C1CCCO1 (stereo unspecified) | activation | 19.8% (inactive)
COCCCNC(=O)c1ccc(CNS(=O)(=O)c2ccc(NC(C)=O)cc2)cc1 | activation | 0.77% (inactive)
CCOC(=O)c1ccc(NC(=O)c2ccc(NC(=O)C3CCCO3)cc2)cc1 (stereo unspecified) | activation | 3.91% (inactive)
Cc1ccc(-c2nc(-c3ccncc3)no2)c(C)c1 | activation | 3.29% (inactive)
Cc1c(NC(=O)c2cc(-c3ccc(Br)cc3)on2)c(=O)n(-c2ccccc2)n1C | activation | -3.47% (inactive)
COc1ccc(CCNC(=O)COC(=O)c2ncc(Cl)c(Cl)c2Cl)cc1OC | activation | -0.83% (inactive)
CCC(C)c1ccc(NC(=O)COC(=O)C2CCCC2)cc1 (stereo unspecified) | activation | -0.7% (inactive)
Cc1c(NC(=O)c2coc(=O)c(Br)c2)c(=O)n(-c2ccccc2)n1C | activation | 0.64% (inactive)
CCn1c(=O)c([N+](=O)[O-])c(NCc2ccc3c(c2)OCO3)c2ccccc21 | activation | 47.1% (active)
